Test system: A549
PROTOCOL TEXT: Antiproliferative activity against human A549 cells after 2 days by MTT assay
Type: functional, cell-based
SETTINGS: A549, 48 h
pIC50: −log10 of the molar value.
# label = YES if pIC50 >= 8 else NO

Check out these entries, answers already filled in.
- COMPOUND STRUCTURE: "COc1cc2c(c(OC)c1OC)-c1ccc(OC)c(=O)cc1[C@@H](NC(=O)c1cccc(Cl)c1)CC2"
  SYSTEM TESTED: "A549"
  ANSWER LABEL: "YES"
- COMPOUND STRUCTURE: "COc1cc2c(c(OC)c1OC)-c1ccc(OC)c(=O)cc1[C@@H](NC(=O)CC1CCCCC1)CC2"
  SYSTEM TESTED: "A549"
  ANSWER LABEL: "NO"
- COMPOUND STRUCTURE: "COc1cc2c(c(OC)c1OC)-c1ccc(OC)c(=O)cc1[C@@H](NC(=O)c1ccc(C(C)(C)C)cc1)CC2"
  SYSTEM TESTED: "A549"
  ANSWER LABEL: "NO"

q: Is it the case that COc1cc2c(c(OC)c1OC)-c1ccc(OC)c(=O)cc1[C@@H](NC(=O)CI)CC2 has pIC50 reaching or exceeding 8?
a: NO

q: Next compound: COc1cc2c(c(OC)c1OC)-c1ccc(OC)c(=O)cc1[C@@H](NC(=O)c1ccccc1C)CC2
a: YES

q: Next compound: COc1cc2c(c(OC)c1OC)-c1ccc(OC)c(=O)cc1[C@@H](NC(=O)c1ccc(Br)cc1)CC2
a: YES
